# System Tested: UniProt:P08183
# Procedure Text: MDR1 LLC-PK1 permeability assay: efflux ratio
# Type: in vitro ADME
# Condition Summary: pig
Counter-ions that a name gives are not always drawn.
Reported Metric: efflux ratio at 2 h, 1 µM

I: Cn1cnc2ccc(Nc3c(F)ccc(NS(=O)(=O)N4CC(OC(F)F)C4)c3Cl)c(Cl)c2c1=O
II: COCC1(C)CN(S(=O)(=O)Nc2ccc(F)c(Nc3ccc4ncn(C)c(=O)c4c3C)c2Cl)C1 [Example 140, trifluoroacetate]
III: Cc1c(Oc2c(F)ccc(NS(=O)(=O)N3CCCC3)c2Cl)ccc2ncn(C)c(=O)c12
rank_up(items): orders items by reported efflux ratio at 2 h, 1 µM in ascending numerical order. Show the ranking through the labels, in the order asked for.
III, II, I
(III: 0.8, II: 1.2, I: 2.6)

###

# System Tested: P-gp (MDR1) (Homo sapiens (Human))
# Procedure Text: MDR1 LLC-PK1 permeability assay: efflux ratio
# Type: in vitro ADME
# Condition Summary: pig
Structures can show the parent of a compound that is named as a salt.
Reported Metric: efflux ratio at 2 h, 1 µM

Solved cases below.
{"Compound": "CO[C@@H]1CCN(S(=O)(=O)Nc2cc(F)c(F)c(Nc3ccc4ncn(C)c(=O)c4c3Cl)c2Cl)C1 [Example 32, trifluoroacetate]", "Value Measured": 1.8}
{"Compound": "CO[C@@H]1CCN(S(=O)(=O)Nc2cc(F)cc(Nc3ccc4ncn(C)c(=O)c4c3C)c2Cl)C1", "Value Measured": 1.3}
{"Compound": "Cn1cnc2ccc(Nc3cc(Cl)cc(NS(=O)(=O)N4CC[C@@H](F)C4)c3F)c(F)c2c1=O [Example 58, trifluoroacetate]", "Value Measured": 5.3}
{"Compound": "Cn1cnc2ccc(Nc3c(F)ccc(NS(=O)(=O)N4CCCC4)c3Cl)c(C#N)c2c1=O [Example 50, trifluoroacetate]", "Value Measured": 5.3}
{"Compound": "CO[C@@H]1CCN(S(=O)(=O)Nc2cc(F)c(F)c(Nc3ccc4ncn(C)c(=O)c4c3Cl)c2F)C1", "Value Measured": 2.9}

A: Cn1cnc2ccc(Oc3c(F)ccc(NS(=O)(=O)N4CC[C@@H](F)C4)c3Cl)c(F)c2c1=O
B: Cn1cnc2ccc(Nc3c(F)ccc(NS(=O)(=O)N4CC5CC4C5)c3Cl)c(F)c2c1=O
Please indicate which entry, A or B , has the lower recorded efflux ratio at 2 h, 1 µM value. API: response body contains the label of the selected item.
B
(B: 1.5, A: 2.2)

###

# System Tested: P-gp (MDR1) (Homo sapiens (Human), UniProt P08183)
# Sequence (P08183 whole entry, species assumed): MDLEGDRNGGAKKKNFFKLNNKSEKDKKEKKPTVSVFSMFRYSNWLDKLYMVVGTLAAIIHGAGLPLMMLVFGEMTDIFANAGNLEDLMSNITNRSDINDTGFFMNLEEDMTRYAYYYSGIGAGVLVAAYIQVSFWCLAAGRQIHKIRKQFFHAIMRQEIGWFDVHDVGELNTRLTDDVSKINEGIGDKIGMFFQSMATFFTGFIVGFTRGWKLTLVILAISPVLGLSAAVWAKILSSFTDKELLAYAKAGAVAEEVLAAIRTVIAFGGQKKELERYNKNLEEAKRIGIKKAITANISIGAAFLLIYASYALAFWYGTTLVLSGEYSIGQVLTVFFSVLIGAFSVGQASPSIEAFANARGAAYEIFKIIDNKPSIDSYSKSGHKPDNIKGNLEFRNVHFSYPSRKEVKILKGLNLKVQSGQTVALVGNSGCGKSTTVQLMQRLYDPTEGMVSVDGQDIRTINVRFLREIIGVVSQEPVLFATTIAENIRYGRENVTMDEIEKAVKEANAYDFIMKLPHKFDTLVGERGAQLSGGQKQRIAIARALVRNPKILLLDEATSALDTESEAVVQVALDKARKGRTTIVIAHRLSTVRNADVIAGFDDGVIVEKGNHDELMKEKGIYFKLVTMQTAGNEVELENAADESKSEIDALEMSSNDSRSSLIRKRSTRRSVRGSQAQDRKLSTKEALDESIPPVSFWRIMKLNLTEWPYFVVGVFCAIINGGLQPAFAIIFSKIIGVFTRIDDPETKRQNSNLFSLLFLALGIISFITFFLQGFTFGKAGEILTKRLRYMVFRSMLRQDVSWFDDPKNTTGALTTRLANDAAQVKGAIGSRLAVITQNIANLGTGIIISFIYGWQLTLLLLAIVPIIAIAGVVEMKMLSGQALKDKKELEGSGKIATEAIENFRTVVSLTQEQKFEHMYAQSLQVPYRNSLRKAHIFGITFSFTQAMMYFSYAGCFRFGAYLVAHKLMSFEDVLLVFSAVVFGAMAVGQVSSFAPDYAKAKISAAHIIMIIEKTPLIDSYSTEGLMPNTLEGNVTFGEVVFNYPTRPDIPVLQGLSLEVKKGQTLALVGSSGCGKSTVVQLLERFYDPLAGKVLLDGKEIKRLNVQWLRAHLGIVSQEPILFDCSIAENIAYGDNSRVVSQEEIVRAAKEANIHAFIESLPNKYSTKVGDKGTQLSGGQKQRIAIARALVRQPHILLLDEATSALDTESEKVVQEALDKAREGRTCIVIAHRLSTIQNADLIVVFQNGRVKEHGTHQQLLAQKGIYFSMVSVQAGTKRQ
# Procedure Text: MDR1 LLC-PK1 permeability assay: efflux ratio
# Format: in vitro ADME
# Condition Summary: pig
Structures can show the parent of a compound that is named as a salt.
Reported Metric: efflux ratio at 2 h, 1 µM

{"Compound": "Cc1c(Nc2c(F)ccc(NS(=O)(=O)N3CC4(CC4)C3)c2Cl)ccc2ncn(C)c(=O)c12 [Example 163, trifluoroacetate]", "Value Measured": 1.9}
{"Compound": "Cn1cnc2ccc(Oc3c(F)ccc(NS(=O)(=O)N4CCC(F)(F)C4)c3Cl)c(F)c2c1=O [Example 63]", "Value Measured": 1.7}
{"Compound": "COC1CN(S(=O)(=O)Nc2ccc(F)c(Nc3ccc4ncn(C)c(=O)c4c3Cl)c2Cl)C1 [Example 129]", "Value Measured": 1.6}
{"Compound": "CN(C)S(=O)(=O)Nc1ccc(F)c(Nc2ccc3ncn(C)c(=O)c3c2F)c1Cl [Example 83]", "Value Measured": 2.2}
{"Compound": "Cn1cnc2ccc(Oc3c(F)ccc(NS(=O)(=O)N4CC5CC5C4)c3Cl)c(F)c2c1=O (stereo not drawn) [Example 65]", "Value Measured": 1.3}
{"Compound": "Cn1cnc2ccc(Oc3c(F)ccc(NS(=O)(=O)N4C[C@@H](F)[C@@H](F)C4)c3Cl)c(Cl)c2c1=O [Example 59]", "Value Measured": 4.9}
{"Compound": "Cc1c(Nc2c(F)ccc(NS(=O)(=O)N3CC(F)C3)c2Cl)ccc2ncn(C)c(=O)c12 [Example 125]", "Value Measured": 1.2}
{"Compound": "Cc1c(Oc2c(F)ccc(NS(=O)(=O)N3CC(F)C3)c2Cl)ccc2ncn(C)c(=O)c12 [Example 116]", "Value Measured": 2.7}
{"Compound": "Cn1cnc2ccc(Nc3c(F)c(F)cc(NS(=O)(=O)N4CC[C@@H](F)C4)c3F)c(Cl)c2c1=O [Example 36, trifluoroacetate]", "Value Measured": 2.9}
{"Compound": "Cc1c(Nc2cc(Cl)cc(NS(=O)(=O)N3CC[C@@H](F)C3)c2F)ccc2ncn(C)c(=O)c12 [Example 103]", "Value Measured": 3.2}

I: Cn1cnc2ccc(Oc3c(F)ccc(NS(=O)(=O)N4CCCC4)c3Cl)c(Cl)c2c1=O [Example 39]
II: Cn1cnc2ccc(Nc3c(F)ccc(NS(=O)(=O)N4CC(F)(F)C4)c3Cl)c(F)c2c1=O [Example 136]
Please indicate which entry, I or II , has the lower recorded efflux ratio at 2 h, 1 µM value. API: response body contains the label of the selected item.
I
(I: 1.3, II: 3)

A: CO[C@@H]1CCN(S(=O)(=O)Nc2ccc(F)c(Oc3ccc4ncn(C)c(=O)c4c3C)c2Cl)C1 [Example 10]
B: Cn1cnc2ccc(Nc3c(F)c(F)cc(NS(=O)(=O)N4CC[C@@H](F)C4)c3Cl)c(F)c2c1=O [Example 46, trifluoroacetate]
Please indicate which entry, A or B , has the lower recorded efflux ratio at 2 h, 1 µM value. API: response body contains the label of the selected item.
A
